B1: DLC1 (parent)
chain: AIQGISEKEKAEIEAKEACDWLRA

- Variants of: B1
- Protocol Summary: protein stability index of a GFP-peptide fusion (GPS, HEK-293T) (PSI 1-6); higher = more stable;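 further: lentivirally expressed fusions sorted by FACS into six bins by GFP to DsRed ratio, PSI derived from sequencing read proportions per bin multiplied by bin number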
- Condition Description: c terminus: a fixed tail appended
Endpoint Label: protein stability index

| Mutation Notation | protein stability index |
| --- | --- |
| W21V | 4.89 |
| S6L | 3.56 |
| D20H | 3.95 |
| K8R | 4.43 |

Inquiry: May I ask what protein stability index has been recorded for E7W ?
Reply text: 3.58

Inquiry: Record: A1T
Reply text: 4.6

Inquiry: Record: G4A
Reply text: 4.47

Inquiry: Record: S6Q
Reply text: 4.74

Inquiry: Record: I13A
Reply text: 4.7

Inquiry: Record: I13E
Reply text: 5.08

Inquiry: Record: Q3I
Reply text: 3.88

Inquiry: Record: L22Q
Reply text: 5.03

Inquiry: Record: K16L
Reply text: 4.1

Inquiry: Record: I13W
Reply text: 4.26

Inquiry: Record: R23S
Reply text: 4.95

Inquiry: Record: E17G
Reply text: 4.18

Inquiry: Record: K10T
Reply text: 4.68

Inquiry: Record: A15E
Reply text: 4.81

Inquiry: Record: Q3M
Reply text: 4.18

Inquiry: Record: A18M
Reply text: 4.57

Inquiry: Record: I5N
Reply text: 4.79

Inquiry: Record: E14S
Reply text: 3.93
